target: MMP-9 CD (Homo sapiens, UniProt P14780, DEL217-390); construct: corresponding to residues 107–216 and 391–444; test: Real time binding by surface plasmon resonance (Biacore); conditions: steady state affinity fit model; immobilized MMP-9 CD, 25°C; read-out: equilibrium dissociation constant (KD)
Sequence (P14780 with tags, fused parts or gaps DEL217-390 limits assumed): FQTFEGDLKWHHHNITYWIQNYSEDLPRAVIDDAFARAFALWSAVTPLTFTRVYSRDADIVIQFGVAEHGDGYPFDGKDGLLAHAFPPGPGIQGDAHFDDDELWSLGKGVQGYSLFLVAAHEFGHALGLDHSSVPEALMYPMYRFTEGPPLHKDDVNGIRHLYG
pKd: −log10 of the molar value.
readout_label: pKd

compound	assay_system	test_result
O=C(/C=C/c1ccc(O)c(O)c1)O[C@H](Cc1ccc(O)c(O)c1)C(=O)O [rosmarinic acid]	MMP-9 CD (Homo sapiens, UniProt P14780, DEL217-390)	4.97
O=C(/C=C/c1ccc(O)c2c1[C@H](C(=O)O)[C@@H](c1ccc(O)c(O)c1)O2)O[C@H](Cc1ccc(O)c(O)c1)C(=O)O [lithospermic acid]	MMP-9 CD (Homo sapiens, UniProt P14780, DEL217-390)	4.18
O=C(/C=C/c1ccc(O)c2oc(-c3ccc(O)c(O)c3)cc12)O[C@H](Cc1ccc(O)c(O)c1)C(=O)O [SalC, salvianolic acid C]	MMP-9 CD (Homo sapiens, UniProt P14780, DEL217-390)	5.95
O=C(/C=C/c1ccc(O)c(O)c1/C=C/c1ccc(O)c(O)c1)O[C@H](Cc1ccc(O)c(O)c1)C(=O)O [SalA, salvianolic acid A]	MMP-9 CD (Homo sapiens, UniProt P14780, DEL217-390)	6.10

====

target: MMP-9 CD (Homo sapiens, UniProt P14780, DEL217-390); construct: corresponding to residues 107–216 and 391–444; made in house; test: MMP-9 inhibition assay (thiopeptolide, enzyme kinetic analysis); type: biochemical; conditions: spectrophotometric enzyme kinetic assay, thiopeptolide substrate
pKi: −log10 of the molar value.
Items are presented alongside their recorded pKi.
readout_label: pKi

structure_smiles_string	test_result
O=C(/C=C/c1ccc(O)c(O)c1)O[C@H](Cc1ccc(O)c(O)c1)C(=O)O	3.90
O=C(/C=C/c1ccc(O)c(O)c1/C=C/c1ccc(O)c(O)c1)O[C@H](Cc1ccc(O)c(O)c1)C(=O)O	5.24
O=C(/C=C/c1ccc(O)c2oc(-c3ccc(O)c(O)c3)cc12)O[C@H](Cc1ccc(O)c(O)c1)C(=O)O	3.96
O=C(/C=C/c1ccc(O)c2c1[C@H](C(=O)O)[C@@H](c1ccc(O)c(O)c1)O2)O[C@H](Cc1ccc(O)c(O)c1)C(=O)O	3.49
